Assign IC50 to each entry below.
Test system: L1210
protocol_details: in vitro cell growth inhibition, L1210
Format: cell-based
settings: L1210, in vitro; read-out: IC50 for Cell Growth Inhibition, L1210
From the text: Compounds of the invention show antitumor activity. The antitumor activity of the representative cyclopentanthraquinone derivatives is compared with Mitomycin C, m-AMSA and adriamycin.
The reply should be a number in nM, with the unit left off.

Consider the molecule shown here: O=C1c2ccccc2C(=O)c2c1cc(OCCN(CCCl)CCCl)c1c2CC2NC12 (centres unmarked) What is its recorded IC50?
64

What about this molecule? O=C1c2ccccc2C(=O)c2c1cc(OCCN(CCCl)CCCl)c1c2CCC1
290

---

Test system: L1210
protocol_details: in vitro cell growth inhibition, L1210
Format: cell-based
settings: Mus musculus, L1210, read-out: IC50 for Cell Growth Inhibition, L1210
measured_property: IC50 (µM)
The reply should be a number in µM, with the unit left off.

Consider the compound shown here: O=C1c2ccccc2C(=O)c2c1ccc1c2CC2NC12 (stereo not shown) What is its recorded IC50?
9.09
